- TEST_SUMMARY: in vitro
- CONDITION_SET: human, hela cells, % viability
Form field: viability at 28.5 h, 10 µM (one value per entry).
PROPERTY_MEASURED: viability at 28.5 h, 10 µM (%)

COMPOUND | NUMERIC_RESULT
CCC(C)c1ccc(NC(=O)CSc2nnnn2C)cc1 (stereo not shown) [CBK058085] | 122
C=CCNc1nccnc1-c1ccc(C(C)=O)s1 [CBK037052] | 88.8
O=C(O)C1CC=CCC1C(=O)c1c[nH]c2ccccc12 (stereo not shown) [CBK286603] | 90.7
Cc1sc(NC(=S)NC(=O)c2ccco2)c(C(N)=O)c1C [CBK266272] | 98.9
CC(NC(=O)C1C2CCC(CC2)C1C(=O)O)c1ccncc1 (stereo not shown) [CBK287061] | 102
COc1ccccc1Cc1cccc(C2CCN(C(=O)c3ccccc3)CC2)n1 [CBK286236] | 101
CC(Oc1ccccc1)C(=O)Nc1cccc(-c2nnc(-c3ccccc3)o2)c1 (stereo not shown) [CBK262822] | 91.2
CCOC(=O)c1cnc2ccc(F)cc2c1NCc1ccco1 [CBK265834] | 97
CCc1nnc(NC(=O)c2cc(OC)c(OC)c(OC)c2)s1 [CBK058342] | 93.1
O=C(CN1CCC(c2ccccc2F)CC1)Nc1nccs1 [CBK283579] | 106

* * *

- TEST_SUMMARY: in vitro
- CONDITION_SET: human, hela cells, % viability
PROPERTY_MEASURED: viability at 28.5 h, 10 µM (%)

COMPOUND | PROPERTY_MEASURED | NUMERIC_RESULT
CCC(Oc1ccccc1)C(=O)Nc1cc(OC)c(Cl)cc1OC (stereo not drawn) [CBK262235] | viability at 28.5 h, 10 µM | 112
O=C(CSCc1ccccc1Cl)NNC(=O)c1cccnc1 [CBK267826] | viability at 28.5 h, 10 µM | 113
O=C(Nc1ccc(I)cc1C(=O)Nc1cccnc1)c1ccccc1Cl [CBK266154] | viability at 28.5 h, 10 µM | 98.5
O=C(c1ccccc1)N1C[C@@H](c2ccsc2)[C@@H]2CN(Cc3cccc(Cl)c3)CC[C@@H]21 [CBK285603] | viability at 28.5 h, 10 µM | 108
CCOC(=O)N1CCN(S(=O)(=O)c2ccc3c(c2)n(C)c(=O)n3C)CC1 [CBK304620] | viability at 28.5 h, 10 µM | 86.8
COc1ccccc1NC(=O)C(=O)N/N=C/c1ccc(C(=O)O)cc1 [CBK262148] | viability at 28.5 h, 10 µM | 93.8
COc1ccc2c(c1)CCN=C2C[C@H]1CN(C(=O)C2CC2)CC[C@H]1CC(=O)O [CBK289154] | viability at 28.5 h, 10 µM | 108
CCCCSc1nc(N)cc(N2CCN3C(=O)CN(C)C(=O)C3C2)n1 (stereo not drawn) [CBK306940] | viability at 28.5 h, 10 µM | 82.4
Cc1cc(SCC(=O)Nc2cccc3ccccc23)nc2c(C)cccc12 [CBK268005] | viability at 28.5 h, 10 µM | 92.2

* * *

- TEST_SUMMARY: in vitro
- CONDITION_SET: human, hela cells, % viability
Form field: viability at 28.5 h, 10 µM (one value per entry).
PROPERTY_MEASURED: viability at 28.5 h, 10 µM (%)

QUERY_SMILES | NUMERIC_RESULT
FC(F)(F)c1ccnc(OCCCc2ccncc2)c1 | 109
Cc1c(C(=O)Nc2cccc(S(=O)(=O)NCc3ccco3)c2)cnn1-c1ccccc1 | 89.7
O=C(Nc1ccc(CCO)cc1)c1cnc(-c2ccc(Cl)cc2)c(-c2ccco2)c1 | 97.5
CCCc1[nH]nc(O)c1CCc1ccccc1C(F)(F)F | 93.9
COc1ccccc1CN(CN1C(=O)c2ccccc2C1=O)CN1C(=O)c2ccccc2C1=O | 94.9
